Sourced from patent US8247211B2

Tested on: Enterococcus sp.
PROTOCOL_DESCRIPTION: In vitro antibacterial evaluation: minimum inhibitory concentration (MIC), broth dilution method
Type: cell-based
PARTICULARS: strain GC 2691
QUANTITY_NAME: MIC Enterococcus faecalis (GC 2691) (µg/mL)
Return type: number; implicit unit µg/mL.

Request the reported MIC Enterococcus faecalis (GC 2691) associated with CC(c1ccccc1)C1NC(=O)CNC(=O)C(CO)NC(=O)C(C(O)C2CNC(=N)N2C2OC(CO)C(O)C(O)C2O)NC(=O)C(C(O)C2CNC(=N)N2)NC(=O)C(Cc2ccc(OC3OC(CO)C(OC4OC5COC(c6ccc7c(c6)OCO7)OC5C(O)C4O)C(O)C3O)cc2)NC1=O (stereo not shown) [Example 143]
8

---

Test system: Enterococcus sp.
PROTOCOL_DESCRIPTION: In vitro antibacterial evaluation: minimum inhibitory concentration (MIC), broth dilution method
Assay type: cell-based
PARTICULARS: strain GC 4554
Would you mind telling me the reported MIC Enterococcus faecalis (GC 4554) of each entry?

Quick one: MIC Enterococcus faecalis (GC 4554) for COc1cccc(C2OC3C(OC4C(CO)OC(Oc5ccc(CC6NC(=O)C(C(C)c7ccccc7)NC(=O)CNC(=O)C(CO)NC(=O)C(C(O)C7CNC(=N)N7C7OC(CO)C(O)C(O)C7O)NC(=O)C(C(O)C7CNC(=N)N7)NC6=O)cc5)C(O)C4O)OC(CO)C(O)C3O2)c1 (single isomer, unassigned) [Example 137b] ?
64 µg/mL

Which value of MIC Enterococcus faecalis (GC 4554) has been reported for CC(c1ccccc1)C1NC(=O)CNC(=O)C(CO)NC(=O)C(C(O)C2CNC(=N)N2C2OC(CO)C(O)C(O)C2O)NC(=O)C(C(O)C2CNC(=N)N2)NC(=O)C(Cc2ccc(OC3OC(CO)C(OC4OC5COC(c6ccc7ccccc7c6)OC5C(O)C4O)C(O)C3O)cc2)NC1=O (stereo not shown) [Example 145] in the records?
1 µg/mL

So what's the measured MIC Enterococcus faecalis (GC 4554) for this one? CC(c1ccccc1)C1NC(=O)CNC(=O)C(CO)NC(=O)C(C(O)C2CNC(=N)N2C2OC(CO)C(O)C(O)C2O)NC(=O)C(C(O)C2CNC(=N)N2)NC(=O)C(Cc2ccc(OC3OC(CO)C(OC4OC5COC(c6ccc(C(C)(C)C)cc6)OC5C(O)C4O)C(O)C3O)cc2)NC1=O (stereo not shown) [Example 147]
0.5 to 1 µg/mL

# query: MIC Enterococcus faecalis (GC 4554) of entry Cc1cc(C2OCC3OC(OC4C(CO)OC(Oc5ccc(CC6NC(=O)C(C(C)c7ccccc7)NC(=O)CNC(=O)C(CO)NC(=O)C(C(O)C7CNC(=N)N7C7OC(CO)C(O)C(O)C7O)NC(=O)C(C(O)C7CNC(=N)N7)NC6=O)cc5)C(O)C4O)C(O)C(O)C3O2)ccc1[N+](=O)[O-] (stereo not shown) [Example 151]
32 µg/mL

---

Test system: Staphylococcus sp.
PROTOCOL_DESCRIPTION: In vitro antibacterial evaluation: minimum inhibitory concentration (MIC), broth dilution method
Type: cell-based
PARTICULARS: strain GC 4546
QUANTITY_NAME: MIC Staphylococcus haemolyticus (GC 4546) (µg/mL)
Answer in µg/mL, number only, no unit symbol.

What is its MIC Staphylococcus haemolyticus (GC 4546) for Staphylococcus sp.? Entry: CC(c1ccccc1)C1NC(=O)CNC(=O)C(CO)NC(=O)C(C(O)C2CNC(=N)N2C2OC(CO)C(O)C(O)C2O)NC(=O)C(C(O)C2CNC(=N)N2)NC(=O)C(Cc2ccc(OC3OC(CO)C(OC4OC5COC6(OC5C(O)C4O)C(C)CCCC6C)C(O)C3O)cc2)NC1=O (stereo not shown) [Example 206]
0.5

API: value(readout=MIC Staphylococcus haemolyticus (GC 4546), system=Staphylococcus sp.) for record CC(C)CC(=O)OC1C(O)C(OC2C(CO)OC(Oc3ccc(CC4NC(=O)C(C(C)c5ccccc5)NC(=O)CNC(=O)C(CO)NC(=O)C(C(O)C5CNC(=N)N5C5OC(CO)C(O)C(O)C5O)NC(=O)C(C(O)C5CNC(=N)N5)NC4=O)cc3)C(O)C2O)OC2COC3(OC21)C1CC2CC(C1)CC3C2 (stereo not shown) [Example 218]
4

Param readout= MIC Staphylococcus haemolyticus (GC 4546); system= Staphylococcus sp.; entry= CC(C1CCCCC1)C1NC(=O)CNC(=O)C(CO)NC(=O)C(C(O)C2CNC(=N)N2C2OC(CO)C(O)C(O)C2O)NC(=O)C(C(O)C2CNC(=N)N2)NC(=O)C(Cc2ccc(OC3OC(CO)C(OC4OC5COC6(OC5C(O)C4O)C4CC5CC(C4)CC6C5)C(O)C3O)cc2)NC1=O (stereo not shown) [Example 221] ; returns value.
2
